Where do these numbers come from? They come from patent US11613542B2.

# assayName: Pharmacokinetic parameters in male Sprague Dawley rats (intravenous and oral administration)
# Format: in vivo
# experimentalConditions: intravenous administration, rat plasma; dose per compound (mg/kg)
Where a name gives a salt, the structure may show the parent alone.
endpointLabel: AUC (ng·h/mL)

Example entries begin here.
INSERT INTO measurements (compound, endpointlabel, unitannotation, observedresult) VALUES
  ('CC(C)c1cc(F)cc(C(C)C)c1NC(=O)NS(=O)(=O)c1cc(C(=O)N(C)C)n(C)n1 [Example 160, sodium salt]', 'AUC', 'ng·h/mL', 283.3),
  ('CC(C)c1cc(F)cc(C(C)C)c1NC(=O)NS(=O)(=O)c1cc(C(=O)N2CCC2)n(C)n1 [Example 145, sodium salt]', 'AUC', 'ng·h/mL', 415.0),
  ('COc1cc(-c2cc(F)cc(C(C)C)c2NC(=O)NS(=O)(=O)c2cc(CN(C)C)n(C)n2)ccn1', 'AUC', 'ng·h/mL', 356.0),
  ('Cc1cc(-c2cc(F)cc(C(C)C)c2NC(=O)NS(=O)(=O)c2cc(CN(C)C)n(C)n2)n(C)n1', 'AUC', 'ng·h/mL', 259.1);

P: CC(C)c1cc(Cl)cc(C(C)C)c1NC(=O)NS(=O)(=O)c1cc(C(=O)N(C)C)n(C)n1
Q: CN(CCO)C(=O)c1cc(S(=O)(=O)NC(=O)Nc2c3c(cc4c2CCC4)CCC3)nn1C [Example 176, ammonium salt]
Between P and Q , which one has the lower reported AUC value? Give the label of your selection.
P
